system.name: SARS-CoV-2 3CLpro (Severe acute respiratory syndrome coronavirus 2, UniProt P0DTD1)
test.summary: biochemical
Quick list: log10(IC50) per entry.
endpoint.name: log10(IC50) (log10 of the value in nM)

molecule="CC1(C)[C@@H]2[C@@H](C(=O)NN(C[C@@H]3CCNC3=O)C(=O)[C@H](F)Cl)N(C(=O)c3cc(C(F)(F)F)cc(C(F)(F)F)c3)C[C@@H]21 [Example 177]" recorded_measurement=2.17
molecule="CC(C)(C)[C@H](NC(=O)C1(F)CCC1)C(=O)N1C[C@@H]2CCC[C@@H]2[C@H]1C(=O)NN(C[C@@H]1CCNC1=O)C(=O)[C@H](F)Cl [Example 97]" recorded_measurement=1.04
molecule="CC[C@H](C)[C@H](NC(=O)C(F)(F)F)C(=O)N1C[C@@H]2CCC[C@@H]2[C@H]1C(=O)NN(C[C@@H]1CCNC1=O)C(=O)[C@H](F)Cl [Example 48]" recorded_measurement=1.08
molecule="CC[C@H](C)[C@H](NC(C)=O)C(=O)N1C[C@@H]2CCC[C@@H]2[C@H]1C(=O)NN(C[C@@H]1CCNC1=O)C(=O)[C@H](F)Cl [Example 81]" recorded_measurement=0.95
molecule="CCC(C)(C)[C@H](NC(=O)C1(F)CC1)C(=O)N1C[C@H]2[C@@H]([C@H]1C(=O)NN(C[C@@H]1CCNC1=O)C(=O)[C@@H](F)Cl)C2(C)C [Example 145]" recorded_measurement=1.26
molecule="CC1([C@H](NC(=O)C(F)(F)F)C(=O)N2CC3(CC3)C[C@H]2C(=O)NN(C[C@@H]2CCNC2=O)C(=O)[C@H](F)Cl)CC1 [Example 24]" recorded_measurement=1.26
molecule="CC[C@@H](C)[C@H](NC(=O)[C@H](C)F)C(=O)N1C[C@H]2[C@@H]([C@H]1C(=O)NN(C[C@@H]1CCNC1=O)C(=O)[C@@H](F)Cl)C2(C)C [Example 122]" recorded_measurement=1.41
molecule="CC1(C)[C@@H]2[C@@H](C(=O)NN(C[C@@H]3CCNC3=O)C(=O)[C@H](F)Cl)N(C(=O)[C@@H](NC(=O)C3(F)CC3)C3CCC3)C[C@@H]21 [Example 156]" recorded_measurement=1.15
molecule="CCC(C)(C)[C@H](NC(=O)C1CC1)C(=O)N1CC(C)(C)C[C@H]1C(=O)NN(C[C@@H]1CCCNC1=O)C(=O)[C@H](F)Cl [Example 168a]" recorded_measurement=1.04
molecule="CC(C)(C)[C@H](NC(=O)C1CC(F)(F)C1)C(=O)N1C[C@H]2[C@@H]([C@H]1C(=O)NN(C[C@@H]1CCNC1=O)C(=O)[C@@H](F)Cl)C2(C)C [Example 93]" recorded_measurement=1.49

###

Listed compounds paired with reported IC50
system.name: MERS-CoV 3CLpro (Middle East respiratory syndrome-related coronavirus)
Sequence (K9N7C7 3248-3553): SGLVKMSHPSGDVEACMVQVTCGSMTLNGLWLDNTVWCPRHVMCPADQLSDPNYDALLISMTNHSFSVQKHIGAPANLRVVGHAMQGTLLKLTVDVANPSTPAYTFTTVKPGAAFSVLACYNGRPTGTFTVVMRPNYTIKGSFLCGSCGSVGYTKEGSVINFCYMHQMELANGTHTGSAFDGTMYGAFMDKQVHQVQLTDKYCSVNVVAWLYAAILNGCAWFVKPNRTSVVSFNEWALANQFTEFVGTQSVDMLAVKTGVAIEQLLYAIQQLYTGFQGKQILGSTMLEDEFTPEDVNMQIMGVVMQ
test.summary: biochemical
endpoint.name: IC50

compound=CC(C)(C)[C@H](NC(=O)C12CC(C1)C2)C(=O)N1C[C@H]2[C@@H]([C@H]1C(=O)NN(C[C@@H]1CCNC1=O)C(=O)[C@H](F)Cl)C2(C)C recorded_measurement="204 nM"
compound=CC(C)(C)[C@H](NC(=O)C1CC(F)(F)C1)C(=O)N1C[C@H]2[C@@H]([C@H]1C(=O)NN(C[C@@H]1CCNC1=O)C(=O)[C@@H](F)Cl)C2(C)C recorded_measurement="94 nM"
compound=C[C@H]1C[C@@H](C(=O)NN(C[C@@H]2CCNC2=O)C(=O)[C@H](F)Cl)N(C(=O)[C@@H](NC(=O)C(F)(F)F)C(C)(C)C)C1 recorded_measurement="136 nM"
compound=CC(C)(C)[C@H](NC(=O)C(Cl)Cl)C(=O)N1C[C@@H]2CCC[C@@H]2[C@H]1C(=O)NN(C[C@@H]1CCNC1=O)C(=O)[C@H](F)Cl recorded_measurement="101 nM"
compound=CCC(CC)[C@H](NC(=O)C1(F)CC1)C(=O)N1CC(C)(C)C[C@H]1C(=O)NN(C[C@@H]1CCNC1=O)C(=O)[C@H](F)Cl recorded_measurement="283 nM"
compound=C[C@H](NC(=O)C(F)(F)F)C(=O)N1C[C@@H]2CCC[C@@H]2[C@H]1C(=O)NN(C[C@@H]1CCNC1=O)C(=O)[C@H](F)Cl recorded_measurement="83 nM"
compound="CC(C)(C)[C@H](NC(=O)C(F)(F)F)C(=O)N1C[C@@H]2CCC[C@@H]2[C@H]1C(=O)NN(C[C@@H]1CCCNC1=O)C(=O)[C@H](F)Cl [Example 164a]" recorded_measurement="243 nM"
compound=CC[C@H](C)[C@H](NC(=O)[C@@H](F)Cl)C(=O)N1C[C@H]2[C@@H]([C@H]1C(=O)NN(C[C@@H]1CCNC1=O)C(=O)[C@@H](F)Cl)C2(C)C recorded_measurement="69 nM"
